# System: membranes from M. smegmatis wild-type strain MC2155
# Assay type: biochemical
# runParameters: read-out: IC50 oxygen consumption
quantity: IC50 (nM)

1. CCc1nc2ccc(Cl)cn2c1C(=O)NCc1ccc(C2CC3(C2)CN(S(=O)(=O)C(F)(F)F)C3)cc1    89

Origin of measurements: paper PMC11964921
